Test system: SNB-78 CNS
Assay: NCI tumour cell line growth inhibition, 48 h
Please provide measured TGI for the entries that follow.

The value of TGI recorded for CN(C)CC1CCCC(CN2CCCCC2)C1=O (stereo unspecified) when tested on SNB-78 CNS reads 23.9 µM

The value of TGI recorded for O=C(Cc1nc2ccccc2s1)Nc1ccc(Cl)cc1 when tested on SNB-78 CNS reads > 100 µM

The value of TGI recorded for c1ccc(N=c2snc3scc(-c4ccccc4)n23)cc1 when tested on SNB-78 CNS reads > 100 µM

The value of TGI recorded for COc1c(C)c2c(c3c1c(=O)c1ccccc1n3C)C=CC(C)(C)O2 when tested on SNB-78 CNS reads 72.9 µM

The value of TGI recorded for CC(C)N(C(=O)C1(C)CC1)C(C)C when tested on SNB-78 CNS reads > 100 µM

The value of TGI recorded for CO[C@H]1ON=C(c2c(C)cc(C)cc2C)[C@@H]1C1(c2ccccc2)ON=C(c2c(C)cc(C)cc2C)O1 (stereo partly specified) when tested on SNB-78 CNS reads > 100 µM
